Biological target: fibrin (Homo sapiens, UniProt P02671+P02675+P02679)
Sequence (P02671 36-629 limits assumed): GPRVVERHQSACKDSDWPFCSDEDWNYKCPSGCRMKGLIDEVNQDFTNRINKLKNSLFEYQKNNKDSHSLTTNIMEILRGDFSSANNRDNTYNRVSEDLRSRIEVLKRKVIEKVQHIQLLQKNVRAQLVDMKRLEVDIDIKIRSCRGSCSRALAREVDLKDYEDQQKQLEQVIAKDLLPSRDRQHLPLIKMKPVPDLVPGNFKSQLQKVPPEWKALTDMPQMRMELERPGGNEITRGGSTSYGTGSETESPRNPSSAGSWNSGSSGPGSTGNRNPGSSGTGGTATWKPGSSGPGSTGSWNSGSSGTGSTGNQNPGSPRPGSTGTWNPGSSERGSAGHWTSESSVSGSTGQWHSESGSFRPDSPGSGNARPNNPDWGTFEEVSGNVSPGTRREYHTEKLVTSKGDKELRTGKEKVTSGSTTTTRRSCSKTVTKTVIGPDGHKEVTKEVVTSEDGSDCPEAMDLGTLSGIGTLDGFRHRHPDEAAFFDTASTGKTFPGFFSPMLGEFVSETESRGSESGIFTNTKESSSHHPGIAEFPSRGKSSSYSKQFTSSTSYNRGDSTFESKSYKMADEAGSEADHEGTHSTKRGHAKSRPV
Sequence (P02675 45-491 limits assumed): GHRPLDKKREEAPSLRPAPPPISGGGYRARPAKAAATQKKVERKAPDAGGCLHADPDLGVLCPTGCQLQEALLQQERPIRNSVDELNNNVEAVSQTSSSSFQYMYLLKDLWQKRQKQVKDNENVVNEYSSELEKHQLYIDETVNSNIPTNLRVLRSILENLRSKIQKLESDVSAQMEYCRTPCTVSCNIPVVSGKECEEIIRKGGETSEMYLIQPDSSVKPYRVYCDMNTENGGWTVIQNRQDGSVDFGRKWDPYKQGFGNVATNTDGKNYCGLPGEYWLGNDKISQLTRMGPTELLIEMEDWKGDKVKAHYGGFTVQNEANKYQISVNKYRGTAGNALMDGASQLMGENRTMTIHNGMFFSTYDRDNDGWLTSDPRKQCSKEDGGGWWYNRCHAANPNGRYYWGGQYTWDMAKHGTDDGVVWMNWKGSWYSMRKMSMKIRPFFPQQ
Sequence (P02679 27-437 isoform P02679-2 limits assumed): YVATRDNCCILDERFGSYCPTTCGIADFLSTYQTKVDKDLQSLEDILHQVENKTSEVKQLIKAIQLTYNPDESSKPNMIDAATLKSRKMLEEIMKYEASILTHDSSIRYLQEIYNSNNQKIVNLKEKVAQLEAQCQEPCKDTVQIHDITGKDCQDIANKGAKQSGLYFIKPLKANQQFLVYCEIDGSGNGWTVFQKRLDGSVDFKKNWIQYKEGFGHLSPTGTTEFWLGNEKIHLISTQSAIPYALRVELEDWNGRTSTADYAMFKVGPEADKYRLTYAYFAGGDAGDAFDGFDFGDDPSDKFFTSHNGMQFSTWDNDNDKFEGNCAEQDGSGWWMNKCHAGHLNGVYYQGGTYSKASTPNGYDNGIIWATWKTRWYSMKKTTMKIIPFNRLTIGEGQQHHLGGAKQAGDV
Experiment: Dynamic binding test of targeted microvesicles on fibrin-coated coverslips in a parallel-plate flow chamber
Conditions: microvesicles with DSPC/stearate envelope containing the lipopeptide (Examples 20A-20D); shear rate about 114 s^-1, 10 min, 50% human plasma
Numbered stars: 1 amine (or outer) side, 2 acyl side, 3 side chain; on linkers, the order of the positions; unused ones are H or OH. Bridge positions count the residues as written; N and C are the ends. Square brackets hold non-standard residues; d marks the D form. Side chains are listed from the residue outwards. * marks the point of attachment. DSPE = distearoyl phosphatidylethanolamine, CCCCCCCCCCCCCCCCCC(=O)OC[C@H](COP(=O)(O)OCCN*)OC(=O)CCCCCCCCCCCCCCCCC; DPPE = CCCCCCCCCCCCCCCC(=O)OC[C@H](COP(=O)(O)OCCN*)OC(=O)CCCCCCCCCCCCCCC; Glutaryl = O=C(CCCC(=O)[*:2])[*:1]; PG4 = not defined here; AEEA = NCCOCCOCC(=O)O
Give Slope for every item shown.
Answer with the value's number alone.

## Task Hello, I am looking for reported Slope with fibrin (Homo sapiens, UniProt P02671+P02675+P02679) for Ac-GWQPC*PWESWTFC*WDPGGGK(DSPE-PG4-Glut)-NH2 (Ac-GWQPCPWESWTFCWDPGGGK([Glutaryl-PG4-DSPE])-NH2; disulfide 5-13; reading uncertain; also: printed as Ac-GWQPC*PWESWTFC*WDPGGGK(DSPE-PG4-Glut)-NH2) [Seq016-PL1] . Could you help?
## Result 8.4

## Task Hello, I am looking for reported Slope with fibrin (Homo sapiens, UniProt P02671+P02675+P02679) for Ac-WQPC*PAESWTFC*WDPGGGK(DSPE-PG4-Glut)-NH2 (Ac-WQPCPAESWTFCWDPGGGK([Glutaryl-PG4-DSPE])-NH2; disulfide 4-12; reading uncertain; also: printed as Ac-WQPC*PAESWTFC*WDPGGGK(DSPE-PG4-Glut)-NH2) [Seq005-PL1] . Could you help?
## Result 6.1

## Task Hello, I am looking for reported Slope with fibrin (Homo sapiens, UniProt P02671+P02675+P02679) for Ac-SGSGJWQPC*PWESWTFC*WDPGGGK(DSPE-PG4-Glut)-NH2 (Ac-SGSG[AEEA]WQPCPWESWTFCWDPGGGK-NH2; disulfide 9-17; not fully specified (residue 24); printed as Ac-SGSGJWQPC*PWESWTFC*WDPGGGK(DSPE-PG4-Glut)-NH2) [Seq017-PL1] . Could you help?
## Result 3.1

## Task Hello, I am looking for reported Slope with fibrin (Homo sapiens, UniProt P02671+P02675+P02679) for Ac-WQPC*PWESWTFC*WDPGGGK(DPPE-PG4-Glut)-NH2 (Ac-WQPCPWESWTFCWDPGGGK([Glutaryl-PG4-DPPE])-NH2; disulfide 4-12; reading uncertain) [Seq000-PL1, reference compound] . Could you help?
## Result 1.6
